- Species on record: Rattus norvegicus
- assay-protocol: Inhibitory dose by PCA test […].
- Format: functional
- condition-parameters: read-out: ID50 (the source's name)
With a cut-off of 0.7 mg/kg, any ED50 strictly below it is called 1; any ED50 meeting it or above is called 0.

Example results:
1) CC(C)CCn1c(C(=O)O)cc(=O)c2cc3c(=O)cc(C(=O)O)oc3cc21; 0
2) CCCc1c2oc(C(=O)[O-])cc(=O)c2cc2c(=O)cc(C(=O)[O-])n(CC)c12.[Na+].[Na+] [NEDOCROMIL SODIUM]; 0
3) CCCc1c2nccc(O)c2cc2c(=O)cc(C(=O)[O-])oc12.[Na+]; 0
4) O=C([O-])c1cc(O)c2cc3c(=O)cc(C(=O)[O-])oc3cc2n1.[Na+].[Na+]; 1
5) C=CCc1c2nc(C(=O)[O-])cc(Cl)c2cc2c(=O)cc(C(=O)[O-])oc12.[Na+].[Na+]; 0
6) CCCc1c2nc(C(=O)[O-])ccc2cc2c(=O)cc(C(=O)[O-])oc12.[Na+].[Na+]; 0

Lab log: compare recorded ED50 with 0.7 mg/kg; is it strictly lower for `CCCc1c2nc(C(=O)[O-])cc(OC)c2cc2c(=O)cc(C(=O)[O-])oc12.[Na+].[Na+]` ? 1

// next record `CCCc1c2nc(C(=O)[O-])cc(Nc3ccccc3)c2cc2c(=O)cc(C(=O)[O-])oc12.[Na+].[Na+]` 1

// next record `CCCc1c2nc(C(=O)[O-])cc(NCC)c2cc2c(=O)cc(C(=O)[O-])oc12.[Na+].[Na+]` 1

// next record `CCCc1c2oc(C(=O)[O-])cc(=O)c2cc2c(=O)cc(C(=O)[O-])n(CCC)c12.[Na+].[Na+]` 0

// next record `CCCc1c2nc(C(=O)[O-])cc(N)c2cc2c(=O)cc(C(=O)[O-])oc12.[Na+].[Na+]` 1

// next record `CCCc1c2nc(C(=O)[O-])cc(SCC)c2cc2c(=O)cc(C(=O)[O-])oc12.[Na+].[Na+]` 1

// next record `CCCc1c2nc(C(=O)[O-])cc(O)c2cc2c(=O)ccoc12.[Na+]` 0

// next record `Cc1c2nc(C(=O)[O-])cc(O)c2cc2c(=O)cc(C(=O)[O-])oc12.[Na+].[Na+]` 1

// next record `CCCc1c2nc(C(=O)[O-])cc(N(C)C(C)=O)c2cc2c(=O)cc(C(=O)[O-])oc12.[Na+].[Na+]` 0

// next record `CCCc1c2nc(C(=O)[O-])cc(Br)c2cc2c(=O)cc(C(=O)[O-])oc12.[Na+].[Na+]` 1

// next record `CCCc1c2nc(C(=O)[O-])cc(Oc3ccccc3)c2cc2c(=O)cc(C(=O)[O-])oc12.[Na+].[Na+]` 0

* * *

- Species: Rattus norvegicus
- assay-protocol: Inhibitory dose by PCA test […].
- Format: functional
- condition-parameters: read-out: ID50 (the source's name)
metric-name: log10 of ED50 (log10 of the value in mg/kg)
Transform log10 | Measure ED50 | Unit mg/kg

Solved entries:
1. CCCc1c2nc(C(=O)[O-])cc(OCC)c2cc2c(=O)cc(C(=O)[O-])oc12.[Na+].[Na+]; -0.52
2. CCCc1c2nc(C(=O)[O-])cc(Cl)c2cc2c(=O)cc(C(=O)[O-])oc12.[Na+].[Na+]; 0.14
3. CCCc1c2nccc(Cl)c2cc2c(=O)cc(C(=O)[O-])oc12.[Na+]; 0.73
4. CCCc1c2oc(C(=O)[O-])cc(=O)c2cc2c(=O)cc(C(=O)[O-])n(C)c12.[Na+].[Na+]; -0.68

Fill blank: measured log10 of ED50 of the compound `CCCc1c(C(=O)[O-])nc2c(CCC)c3oc(C(=O)[O-])cc(=O)c3cc2c1O.[Na+].[Na+]` is ____. -0.85

// next record `CCCc1c2nc(C(=O)[O-])cc(NC)c2cc2c(=O)cc(C(=O)[O-])oc12.[Na+].[Na+]` -0.66

// next record `CCCc1c2nc(C(=O)[O-])cc(O)c2cc2c(=O)cc(C(=O)[O-])oc12.[Na+].[Na+]` -1.52

// next record `CCCc1c2nc(C(=O)[O-])cc(N3CCCC3)c2cc2c(=O)cc(C(=O)[O-])oc12.[Na+].[Na+]` -0.07

// next record `O=C([O-])c1cc(Cl)c2cc3c(=O)cc(C(=O)[O-])oc3cc2n1.[Na+].[Na+]` 0.63

// next record `CCCc1c2nc(C(=O)[O-])cc(S(=O)(=O)c3ccccc3)c2cc2c(=O)cc(C(=O)[O-])oc12.[Na+].[Na+]` -0.52

// next record `CCn1c(C(=O)[O-])cc(=O)c2cc3c(=O)cc(C(=O)[O-])oc3cc21.[Na+].[Na+]` 1.00

// next record `CCCc1c(C(=O)[O-])nc2c(CCC)c3oc(C(=O)[O-])cc(=O)c3cc2c1Cl.[Na+].[Na+]` 0.39

// next record `CCCc1c2nc(C(=O)[O-])cc(Sc3ccccc3)c2cc2c(=O)cc(C(=O)[O-])oc12.[Na+].[Na+]` 0.27
